The values you see were collected from patent US12617784B2.

- Experiment description: Pharmacokinetic evaluation in mice after intragastric administration
- Type: in vivo, mouse
- Measurement setup: male, ICR, mouse, in vivo, po, 10 mg/kg
Where a name gives a salt, the structure may show the parent alone.
Reported endpoint: AUC (ng·h/mL)
One number for each entry, in ng·h/mL.

q: Any idea what AUC was measured for CC(C)NC[C@@H](C(=O)N1C2CCC1CN(c1ncnc3c1N(C)CC(=O)N3)C2)c1ccc(Cl)cc1 [Example 21, formate] ?
a: 2290

* * *

For each of the compounds below, state its IC50.
- System name: AKT3 (Homo sapiens)
- Sequence (Q9Y243 whole entry): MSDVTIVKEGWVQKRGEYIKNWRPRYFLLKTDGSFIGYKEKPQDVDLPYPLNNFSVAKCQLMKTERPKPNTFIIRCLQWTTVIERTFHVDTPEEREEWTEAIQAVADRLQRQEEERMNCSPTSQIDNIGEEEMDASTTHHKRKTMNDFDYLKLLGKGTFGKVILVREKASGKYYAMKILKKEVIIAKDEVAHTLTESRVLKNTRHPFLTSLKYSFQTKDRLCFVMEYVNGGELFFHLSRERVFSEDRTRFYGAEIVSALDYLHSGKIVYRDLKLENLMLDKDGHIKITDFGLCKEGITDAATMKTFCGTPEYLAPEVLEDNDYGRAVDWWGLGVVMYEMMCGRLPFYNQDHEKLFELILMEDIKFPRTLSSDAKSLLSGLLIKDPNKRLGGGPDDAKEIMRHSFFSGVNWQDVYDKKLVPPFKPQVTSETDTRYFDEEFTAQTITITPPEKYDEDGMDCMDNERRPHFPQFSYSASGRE
Counter-ions that a name gives are not always drawn.
Numbers only, in nM.

C[C@@H]1CC(=O)Nc2ncnc(N3CCN(C(=O)C4(c5ccc(Cl)cc5)CCNCC4)CC3)c21 [Example 18, formate] : 20.1

Go through the items and report each one's IC50.
1. CC(C)NC[C@@H](C(=O)N1CC2CCC(C1)N2c1ncnc2c1[C@@H](C(F)(F)F)CC(=O)N2)c1ccc(Cl)cc1 (single isomer, unassigned) [Example 25 Isomer 1]
2. CC(C)NC[C@@H](C(=O)N1CC2CCC(C1)N2c1ncnc2c1[C@H](C)CC(=O)N2)c1ccc(Cl)cc1 [Example 11]
3. CC(C)NC[C@@H](C(=O)N1CCN(c2ncnc3c2C(C)OC(=O)N3)CC1)c1ccc(Cl)cc1 (stereo partly drawn) [Example 23, formate]
4. CC(C)NC[C@@H](C(=O)N1C2CCC1CN(c1ncnc3c1[C@H]1C[C@H]1C(=O)N3)C2)c1ccc(Cl)cc1 (single isomer, unassigned) [Example 39 Isomer 2]
5. CC(C)NC[C@@H](C(=O)N1CCN(c2ncnc3c2[C@H](C(F)(F)F)CC(=O)N3)CC1)c1ccc(Cl)cc1 (single isomer, unassigned) [Example 16 Isomer 2]

a:
1: 20; 2: 0.25; 3: 1.2; 4: 43; 5: 1
